Organism: Rattus norvegicus
Assay details: DrugMatrix - Regimen: Daily Repeat
Assay type: toxicity, organism-based, Sprague-Dawley
Design: regimen Daily Repeat, gender Male, age 6-8 weeks
Cond: in vivo, sc, 0 mg/kg, 120 h, tissue Plasma, route subcutaneous, dose level Control, time 5 day, […]
Measured parameter: CREATINE PHOSPHOKINASE (u/L)
One number for each entry, in u/L.

Examples with answers:
INSERT INTO assay_data (compound, unit_abbrev, experimental_result) VALUES
  ('CC(C)(C)CC(C)(C)c1ccc(OCCOCC[N+](C)(C)Cc2ccccc2)cc1.[Cl-] [BENZETHONIUM CHLORIDE]', 'u/L', 205.5),
  ('CCC(=O)O[C@]1(C(=O)CCl)[C@@H](C)C[C@H]2[C@@H]3CCC4=CC(=O)C=C[C@]4(C)[C@@]3(F)[C@@H](O)C[C@@]21C [CLOBETASOL PROPIONATE]', 'u/L', 911.5),
  ('O=C(Nc1ccc(Br)cc1)c1cc(Br)cc(Br)c1O [TRIBROMSALAN]', 'u/L', 911.5),
  ('CCN(CC)CCOCCC1=CCC2CC1C2(C)C (stereo not given) [MYRTECAINE]', 'u/L', 295.83);

Consider the additional compound presented here.
CREATINE PHOSPHOKINASE reported for this compound Oc1c(Cl)cc(Cl)c(Cl)c1Cc1c(O)c(Cl)cc(Cl)c1Cl [HEXACHLOROPHENE] : 205.5

###

Organism: Rattus norvegicus
Assay details: DrugMatrix - Regimen: Daily Repeat
Type: toxicity, organism-based, Sprague-Dawley
Parameters: regimen Daily Repeat, gender Male, age 6-8 weeks
Cond: in vivo, po, 2000 mg/kg, 72 h, tissue Blood, route oral GAVAGE, dose level High, time 3 day, vehicle .5 % CMC
Please respond with reported MEAN CORPUSCULAR VOLUME for every item in the list.
Answers are plain numbers, in fL.

// known answers, use as guide
INSERT INTO results (compound, measured_parameter, unit_abbrev, experimental_result) VALUES
  ('O=C1Nc2ccc(Cl)cc2C(c2ccccc2Cl)=NC1O (stereo not given) [LORAZEPAM]', 'MEAN CORPUSCULAR VOLUME', 'fL', 63.1),
  ('CC1(C)S[C@@H]2[C@H](NC(=O)[C@H](N)c3ccccc3)C(=O)N2[C@H]1C(=O)O [AMPICILLIN]', 'MEAN CORPUSCULAR VOLUME', 'fL', 62.13),
  ('CN(C/C=C/C#CC(C)(C)C)Cc1cccc2ccccc12 [TERBINAFINE]', 'MEAN CORPUSCULAR VOLUME', 'fL', 58.93),
  ('CN/C(=N/CCSCc1nc[nH]c1C)NC#N [CIMETIDINE]', 'MEAN CORPUSCULAR VOLUME', 'fL', 63.17);

So, NC1CCN(c2nc3c(cc2F)c(=O)c(C(=O)O)cn3-c2ccc(F)cc2F)C1 (stereo not given) [TOSUFLOXACIN] ? Its MEAN CORPUSCULAR VOLUME was 59.95

###

Species: Rattus norvegicus
Assay details: DrugMatrix - Regimen: Daily Repeat
Assay type: toxicity, organism-based, Sprague-Dawley
Parameters: regimen Daily Repeat, gender Male, age 6-8 weeks
Cond: in vivo, sc, 0 mg/kg, 72 h, tissue Blood, route subcutaneous, dose level Control, time 3 day, […]
Please go through the items and note down their HEMOGLOBIN.
Answers are plain numbers, in G/DL.

Reference set (4 entries):
INSERT INTO results (compound, experimental_result) VALUES
  ('CCN(CC)CCOCCC1=CCC2CC1C2(C)C (stereo not given)', 13.4),
  ('CC(C)(C)CC(C)(C)c1ccc(OCCOCC[N+](C)(C)Cc2ccccc2)cc1.[Cl-] [BENZETHONIUM CHLORIDE]', 12.97),
  ('CCC(=O)O[C@]1(C(=O)CCl)[C@@H](C)C[C@H]2[C@@H]3CCC4=CC(=O)C=C[C@]4(C)[C@@]3(F)[C@@H](O)C[C@@]21C [CLOBETASOL PROPIONATE]', 13.07),
  ('Oc1c(Cl)cc(Cl)c(Cl)c1Cc1c(O)c(Cl)cc(Cl)c1Cl', 12.97);

Per the records, this compound ( `O=C(Nc1ccc(Br)cc1)c1cc(Br)cc(Br)c1O` ) has HEMOGLOBIN equal to 13.07

###

Organism: Rattus norvegicus
Assay details: DrugMatrix - Regimen: Daily Repeat
Format: toxicity, organism-based, Sprague-Dawley
Parameters: regimen Daily Repeat, gender Male, age 6-8 weeks
Cond: in vivo, sc, 0 mg/kg, 120 h, tissue Blood, route subcutaneous, dose level Control, time 5 day, […]
Measured parameter: ABSOLUTE LYMPHOCYTE (CELLS/uL)
Numbers only, in CELLS/uL.

The examples below pair each entry with its known result.
INSERT INTO measurements (compound, measured_parameter, experimental_result) VALUES
  ('CCN(CC)CCOCCC1=CCC2CC1C2(C)C (stereo not given) [MYRTECAINE]', 'ABSOLUTE LYMPHOCYTE', 11847.67),
  ('CCC(=O)O[C@]1(C(=O)CCl)[C@@H](C)C[C@H]2[C@@H]3CCC4=CC(=O)C=C[C@]4(C)[C@@]3(F)[C@@H](O)C[C@@]21C [CLOBETASOL PROPIONATE]', 'ABSOLUTE LYMPHOCYTE', 12360.83),
  ('Oc1c(Cl)cc(Cl)c(Cl)c1Cc1c(O)c(Cl)cc(Cl)c1Cl [HEXACHLOROPHENE]', 'ABSOLUTE LYMPHOCYTE', 12736.67),
  ('O=C(Nc1ccc(Br)cc1)c1cc(Br)cc(Br)c1O [TRIBROMSALAN]', 'ABSOLUTE LYMPHOCYTE', 12360.83);

Next compound, please.
Value of ABSOLUTE LYMPHOCYTE reported for the compound CC(C)(C)CC(C)(C)c1ccc(OCCOCC[N+](C)(C)Cc2ccccc2)cc1.[Cl-] [BENZETHONIUM CHLORIDE] is 12736.67

###

Species on record: Rattus norvegicus
Assay details: DrugMatrix - Regimen: Daily Repeat
Type: toxicity, organism-based, Sprague-Dawley
Set-up: regimen Daily Repeat, gender Male, age 6-8 weeks
Cond: in vivo, po, 0 mg/kg, 120 h, tissue Blood, route oral GAVAGE, dose level Control, time 5 day, […]
Measured parameter: LYMPHOCYTE (%)
One number for each entry, in %.

Worked cases, answers included:
INSERT INTO results (molecule, unit_abbrev, experimental_result) VALUES
  ('Clc1ccc(COC(Cn2ccnc2)c2ccc(Cl)cc2Cl)cc1 (centres undefined)', '%', 90.33),
  ('COc1cc(N)c(Cl)cc1C(=O)NC1CCN(CCCOc2ccc(F)cc2)CC1OC (centres undefined) [CISAPRIDE]', '%', 94.33),
  ('CC(C)(C)NC(=O)[C@H]1CC[C@H]2[C@@H]3CC[C@H]4NC(=O)C=C[C@]4(C)[C@H]3CC[C@]12C [FINASTERIDE]', '%', 87);

# LYMPHOCYTE (molecule: `CO[C@H]1/C=C/O[C@@]2(C)Oc3c(C)c(O)c4c(O)c(c(/C=N/N5CCN(C6CCCC6)CC5)c(O)c4c3C2=O)NC(=O)/C(C)=C\C=C\[C@H](C)[C@H](O)[C@@H](C)[C@@H](O)[C@@H](C)[C@H](OC(C)=O)[C@@H]1C` ) is 89.5

###

Provide the reported LIPASE of each item.
Organism: Rattus norvegicus
Assay details: DrugMatrix - Regimen: Daily Repeat
Assay type: toxicity, organism-based, Sprague-Dawley
Design: regimen Daily Repeat, gender Male, age 6-8 weeks
Cond: in vivo, po, 0 mg/kg, 120 h, tissue Plasma, route oral GAVAGE, dose level Control, time 5 day, vehicle 100 % WATER
Numbers only, in u/L.

INSERT INTO measurements (compound, measured_parameter, unit_abbrev, experimental_result) VALUES
  ('Cn1c(=O)c2[nH]cnc2n(C)c1=O.O [THEOPHYLLINE]', 'LIPASE', 'u/L', 10.17),
  ('CC(C)NCC(O)c1ccc(NS(C)(=O)=O)cc1 (stereo not drawn) [SOTALOL]', 'LIPASE', 'u/L', 10.17);

Here is the next item to consider.
Lookup result for CC(C)(C)CC(C)(C)c1ccc(OCCOCC[N+](C)(C)Cc2ccccc2)cc1.[Cl-] [BENZETHONIUM CHLORIDE] ; measured LIPASE: 11.5

###

Would you kindly list NEUTROPHIL for each of these compounds?
Species on record: Rattus norvegicus
Assay details: DrugMatrix - Regimen: Daily Repeat
Type: toxicity, organism-based, Sprague-Dawley
Design: regimen Daily Repeat, gender Male, age 6-8 weeks
Cond: in vivo, sc, 0 mg/kg, 120 h, tissue Blood, route subcutaneous, dose level Control, time 5 day, […]

// solved cases for NEUTROPHIL follow
INSERT INTO measurements (compound, experimental_result) VALUES
  ('CCC(=O)O[C@]1(C(=O)CCl)[C@@H](C)C[C@H]2[C@@H]3CCC4=CC(=O)C=C[C@]4(C)[C@@]3(F)[C@@H](O)C[C@@]21C [CLOBETASOL PROPIONATE]', '13.67%'),
  ('CCN(CC)CCOCCC1=CCC2CC1C2(C)C (stereo not given) [MYRTECAINE]', '8.17%'),
  ('Oc1c(Cl)cc(Cl)c(Cl)c1Cc1c(O)c(Cl)cc(Cl)c1Cl [HEXACHLOROPHENE]', '8.83%'),
  ('O=C(Nc1ccc(Br)cc1)c1cc(Br)cc(Br)c1O [TRIBROMSALAN]', '13.67%');

Let us examine a further case.
The recorded NEUTROPHIL for CC(C)(C)CC(C)(C)c1ccc(OCCOCC[N+](C)(C)Cc2ccccc2)cc1.[Cl-] [BENZETHONIUM CHLORIDE] is 8.83%
